STUDY_SYSTEM: Cathepsin D (Cat D) (Homo sapiens (Human))
Sequence (P07339 65-412, species assumed): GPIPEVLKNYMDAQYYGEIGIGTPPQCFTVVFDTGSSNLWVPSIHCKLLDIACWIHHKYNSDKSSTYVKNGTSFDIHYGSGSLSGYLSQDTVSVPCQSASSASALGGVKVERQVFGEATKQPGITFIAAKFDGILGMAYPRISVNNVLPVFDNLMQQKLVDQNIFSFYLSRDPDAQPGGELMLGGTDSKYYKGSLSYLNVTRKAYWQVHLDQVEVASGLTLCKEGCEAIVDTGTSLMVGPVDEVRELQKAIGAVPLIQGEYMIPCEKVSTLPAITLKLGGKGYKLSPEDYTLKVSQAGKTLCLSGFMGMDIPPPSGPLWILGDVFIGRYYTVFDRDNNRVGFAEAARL
EXPERIMENTAL_DETAILS: In vitro enzymatic Cathepsin D (Cat D) FRET assay
Type: biochemical
EXPERIMENTAL_CONDITIONS: average IC50, cathepsin D enzyme assay; read-out: CatD IC50
Listing of entries alongside the reported pIC50.
Note: pIC50 values are expressed as the negative base-10 logarithm of concentration in M.

Answered examples (2):
| SMILES_CODE | STUDY_SYSTEM | pIC50 |
| --- | --- | --- |
| NC1=N[C@](CF)(c2cc(Oc3cccc(Cl)n3)ccc2F)C[C@@H](C(F)(F)F)O1 | Cathepsin D (Cat D) (Homo sapiens (Human)) | 2.71 |
| COc1cnc2c(Nc3cc(F)c(F)c([C@]4(C)C[C@@H](C(F)(F)F)OC(N)=N4)c3)nccc2n1 | Cathepsin D (Cat D) (Homo sapiens (Human)) | 3.28 |

# input for lookup
Entry CC#Cc1ccc(-c2ccc(F)c([C@]3(CF)C[C@@H](C(F)(F)F)OC(N)=N3)c2)cn1 , system Cathepsin D (Cat D) (Homo sapiens (Human)): what pIC50 was measured?
3.77

# credit: patent US9296734B2
